Provenance of the data: patent US10689354B2

Target: human androgen receptor (Homo sapiens)
Construct: expressed in transfected cells; host or cells: HEK293
Sequence (P10275 whole entry): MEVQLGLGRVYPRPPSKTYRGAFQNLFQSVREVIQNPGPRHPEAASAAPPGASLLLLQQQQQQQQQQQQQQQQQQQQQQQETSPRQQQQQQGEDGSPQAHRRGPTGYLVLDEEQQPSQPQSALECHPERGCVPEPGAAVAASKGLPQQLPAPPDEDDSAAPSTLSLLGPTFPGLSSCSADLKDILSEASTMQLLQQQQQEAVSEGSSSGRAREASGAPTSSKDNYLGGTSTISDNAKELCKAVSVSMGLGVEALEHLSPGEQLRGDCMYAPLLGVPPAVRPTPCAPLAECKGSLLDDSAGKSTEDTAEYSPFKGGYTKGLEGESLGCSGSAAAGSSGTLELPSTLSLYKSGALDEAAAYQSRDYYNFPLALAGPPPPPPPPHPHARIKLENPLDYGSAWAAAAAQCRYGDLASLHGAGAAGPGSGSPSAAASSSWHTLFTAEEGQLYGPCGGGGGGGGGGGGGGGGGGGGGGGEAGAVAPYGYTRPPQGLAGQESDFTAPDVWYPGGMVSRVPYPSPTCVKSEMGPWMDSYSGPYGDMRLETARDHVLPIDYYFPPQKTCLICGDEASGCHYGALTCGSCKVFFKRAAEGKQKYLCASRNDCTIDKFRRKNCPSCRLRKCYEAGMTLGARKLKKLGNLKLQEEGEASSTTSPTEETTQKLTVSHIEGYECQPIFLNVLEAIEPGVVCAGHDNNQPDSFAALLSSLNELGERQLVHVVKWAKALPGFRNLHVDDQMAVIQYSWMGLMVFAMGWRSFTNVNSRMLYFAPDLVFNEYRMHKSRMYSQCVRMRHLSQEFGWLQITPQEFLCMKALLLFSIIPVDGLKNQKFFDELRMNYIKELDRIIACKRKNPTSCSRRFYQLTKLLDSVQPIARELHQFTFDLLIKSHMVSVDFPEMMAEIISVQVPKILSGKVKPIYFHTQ
Assay: Reporter assay of an androgen receptor responsive sequence (luciferase, transiently transfected HEK293 cells)
Type: cell-based
Conditions: 24 hours incubation, relative to activity of 100 nM DHT, read-out: AR transcriptive activity (pEC50) (converted)
Quick reference for EC50 among some molecules
Number in nM, nothing else.

Consider the reported EC50 for these molecules:
line_notation=Cc1sc(N(Cc2cccs2)c2ccc(C#N)cc2)nc1C(=O)NS(C)(=O)=O tested_system="human androgen receptor (Homo sapiens)" measured=631
line_notation=Cc1sc(N(Cc2ncc(F)cc2F)c2ccc(C#N)cc2)nc1C(=O)NS(C)(=O)=O tested_system="human androgen receptor (Homo sapiens)" measured=1000
line_notation=COCCCS(=O)(=O)NC(=O)c1nc(N(CCc2ccc(C#N)cc2)Cc2ccc(OC(F)F)cc2)oc1C tested_system="human androgen receptor (Homo sapiens)" measured=631
line_notation=CS(=O)(=O)NC(=O)c1nc(N(Cc2ccccc2Cl)c2ccc(C#N)cc2)sc1Cl tested_system="human androgen receptor (Homo sapiens)" measured=316
line_notation=Cc1sc(N(Cc2nc3ccccc3s2)c2ccc(C#N)cc2)nc1C(=O)NS(C)(=O)=O tested_system="human androgen receptor (Homo sapiens)" measured=200
line_notation=CS(=O)(=O)NC(=O)c1nc(N(Cc2ccc3occc3c2)c2ccc(C#N)cc2)sc1Cl tested_system="human androgen receptor (Homo sapiens)" measured=50.1
line_notation=Cc1oc(N(Cc2cccc(Cl)c2)c2ccc(C#N)cc2)nc1C(=O)NS(C)(=O)=O tested_system="human androgen receptor (Homo sapiens)" measured=2000
line_notation=Cc1oc(N(CCc2ccc(Cl)cc2)Cc2cccc(OC(F)(F)F)c2)nc1C(=O)NS(C)(=O)=O tested_system="human androgen receptor (Homo sapiens)" measured=501

molecule `COCCCS(=O)(=O)NC(=O)c1nc(N(Cc2cnc(C(F)(F)F)c(OC)c2)c2ccc(C#N)cc2)sc1C` , EC50 observed: 1580

molecule `Cc1sc(N(CCc2ccc(C#N)cc2)Cc2ccc(Cl)cc2)nc1C(=O)NS(=O)(=O)C(F)(F)F` , EC50 observed: 2510

molecule `Cc1oc(N(Cc2cc3ccccc3s2)c2ccc(C#N)cc2)nc1C(=O)NS(C)(=O)=O` , EC50 observed: 126

molecule `Cc1sc(N(Cc2cc(F)cc(F)c2)c2ccc(C#N)cc2)nc1C(=O)NS(C)(=O)=O` , EC50 observed: 100

* * *

Target: androgen receptor (AR-LBD) (Rattus norvegicus)
Construct: 5 μL of 2×AR-LBD/Fluoromone AL Red Complex contained in the kit; purchased Invitrogen
Sequence (P15207 651-882 limits assumed): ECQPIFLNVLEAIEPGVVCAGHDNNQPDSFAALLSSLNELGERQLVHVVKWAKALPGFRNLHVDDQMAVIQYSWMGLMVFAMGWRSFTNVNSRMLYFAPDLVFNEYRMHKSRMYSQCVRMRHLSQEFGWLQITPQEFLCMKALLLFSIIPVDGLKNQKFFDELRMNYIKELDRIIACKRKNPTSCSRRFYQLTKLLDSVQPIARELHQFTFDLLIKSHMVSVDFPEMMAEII
Experiment: Evaluation of androgen receptor affinity (PolarScreen Androgen Receptor Competitor Assay Kit, Red; fluorescence polarization)
Settings: 22° C. for 5 hours, relative to binding rate of 1 μM DHT, read-out: AR affinity (pEC50) (converted)
Method: Evaluation of an Androgen Receptor Affinity To examine the interaction of a compound with an androgen receptor, evaluation was carried out in accordance with the following procedure using PolarScreen™ Androgen Receptor Competitor Assay Kit, Red (Invitrogen). To 2 wells each of a 384 well black plate was added 5 μL of the compound solution. […] After 5 hours of the reaction, fluorescence polarization was measured and the affinity was evaluated. […]
Quick reference for EC50 among some molecules
Number in nM, nothing else.

Consider the reported EC50 for these molecules:
molecule="Cc1sc(N(CCOCc2ccccc2)c2ccc(C#N)cc2)nc1C(=O)NS(C)(=O)=O [Compound 367]" quantity_name=EC50 endpoint_unit=nM measured=158
molecule="Cc1sc(N(Cc2ccccc2)c2ccc(C#N)cc2)nc1C(=O)NS(=O)(=O)/C=C/c1ccccc1 [Compound 385]" quantity_name=EC50 endpoint_unit=nM measured=794
molecule="Cc1sc(N(Cc2cccc(Cl)c2F)c2ccc(C#N)cc2)nc1C(=O)NS(C)(=O)=O [Compound 107]" quantity_name=EC50 endpoint_unit=nM measured=50.1

molecule Cc1sc(N(Cc2cccc(C(F)(F)F)c2)c2ccc(C#N)cc2)nc1C(=O)NS(C)(=O)=O [Compound 24] , EC50 observed: 20

molecule CCc1oc(N(Cc2ccc(OC(F)F)cn2)c2ccc(C#N)cc2)nc1C(=O)NS(C)(=O)=O [Compound 635] , EC50 observed: 398

molecule Cc1sc(N(Cc2cc(F)cc(F)c2)c2ccc(C#N)cc2)nc1C(=O)NS(C)(=O)=O [Compound 96] , EC50 observed: 79.4

molecule Cc1sc(N(Cc2ccccc2)c2ccc(Cl)cc2)nc1C(=O)NS(C)(=O)=O [Compound 31] , EC50 observed: 100

molecule Cc1sc(N(CC[C@@H]2CCCC[C@H]2O)c2ccc(C#N)cc2)nc1C(=O)NS(C)(=O)=O (racemic) [Compound 410] , EC50 observed: 158
